Provenance of the data: PubChem BioAssay (NCI)

Experiment: NCI Yeast Anticancer Drug Screen. Data for the bub3 strain (AID 167)
Details: S. cerevisiae bub3 mutant strain, at 50.0 µM, active compounds read high
Compounds without any hit were thinned out: in the full panel of roughly 79,000, 15% have a hit.
Measurement label: growth inhibition (%)
Please respond with the number in % and leave the unit unwritten.

>  <Compound>
CCCCC(O)(CCCC)C(C)(C)C

>  <growth inhibition, %>
-0.2

$$$$
>  <Compound>
COc1ccc(/C=C/C(=O)C(C)(C)CN(C)CCN(C)C)cc1

>  <growth inhibition, %>
-5.25

$$$$
>  <Compound>
CCCCCCC(O)CC[C@H]1CCC[C@@H](C)N1 (stereo partly drawn)

>  <growth inhibition, %>
45.5

$$$$
>  <Compound>
O=c1c2ccccc2n2n1Cc1ccccc1C2

>  <growth inhibition, %>
12.2

$$$$

stdin: Give its growth inhibition value. Item: C1CCc2[nH]nc(-c3n[nH]c4c3CCCCC4)c2CC1
stdout: 12.3

stdin: Report growth inhibition for C/C(=N/S(=O)(=O)c1ccc(C)c(C)c1)OC(C)C please.
stdout: 13.1

---

Assay: NCI Yeast Anticancer Drug Screen. Data for the sgs1 mgt1 strain (AID 161);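 note: 0% = growth of cultures given vehicle only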
Details: S. cerevisiae sgs1 mgt1 strain, at 50.0 µM
About 79,000 compounds went through this panel and 15% of them were active in at least one assay; those are over-represented in the sample as a whole. Active and inactive are the calls of the source. Cut-off read from the data, not from the text of the source: active = growth inhibition above about 70%; inactive = the rest.
Please state which outcome applies, choosing from class 1 (active), class 0 (inactive)

Examples with answers:
>  <Compound>
CC1c2c(cc(=O)n(C)c2O)C(=O)N1Cc1ccccc1 (centres undefined)

>  <Class label>
class 0

$$$$
>  <Compound>
CCSC(=S)S(=O)(=O)c1ccc(C)cc1

>  <Class label>
class 1

$$$$
>  <Compound>
COC1CC(C)(NC(=O)C(F)(F)F)C2OC(c3ccccc3)OCC2O1 (centres undefined)

>  <Class label>
class 0

$$$$
>  <Compound>
O=C(c1ccccc1)C(O)(c1ccccc1)c1ccccc1

>  <Class label>
class 0

$$$$
>  <Compound>
O=C(O)CC/C(=N\Nc1ccc([N+](=O)[O-])cc1[N+](=O)[O-])c1ccccc1

>  <Class label>
class 0

$$$$
>  <Compound>
Cc1ccc(C(C)C)cc1NC(=O)/C=C/c1ccccc1

>  <Class label>
class 0

$$$$

stdin: Hi, sorry to bother you, what did the test record for C/C(=N\N(C)/C=N/S(C)(=O)=O)c1ccccc1 ?
stdout: class 0

stdin: Could you please tell me the result logged for NNC(=S)N/N=C(\CCCC(=O)NCCc1ccccc1)CC(=O)c1ccccc1 in this assay?
stdout: class 0

stdin: Assay result, entry Clc1cnnc2nc[nH]c12 — outcome?
stdout: class 0

stdin: Test call for this compound, please: Cc1cc(CO)c(O)c(CN(CC(=O)O)CC(=O)O)c1
stdout: class 0

stdin: Tell me the recorded outcome of this test for COc1cc(/C=C2\CCC(CN(C)C)C2=O)ccc1OC(=O)c1ccccc1 (centres undefined) .
stdout: class 1

---

Experiment: NCI Yeast Anticancer Drug Screen. Data for the rad50 strain (AID 155);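 note: 0% = growth of vehicle-only cultures of the same strain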
Settings: S. cerevisiae rad50 strain growth inhibition; at 50.0 µM; active compounds read high
About 79,000 compounds went through this panel and 15% of them were active in at least one assay; those are over-represented in the sample as a whole.
Measurement label: growth inhibition (%)
Respond with the bare value in %.

>  <Compound>
CC(O)CCNc1nnc2c3ccccc3n(C)c2n1 (configuration not stated)

>  <growth inhibition / %>
5.95

$$$$
>  <Compound>
c1ccc(NP2(Nc3ccccc3)=NP(Nc3ccccc3)(Nc3ccccc3)=NP(Nc3ccccc3)(Nc3ccccc3)=N2)cc1

>  <growth inhibition / %>
-12.2

$$$$
>  <Compound>
COc1ccc(OC)c(NC(=O)SC(C)C)c1

>  <growth inhibition / %>
-5.3

$$$$
>  <Compound>
O=COCCOC=O

>  <growth inhibition / %>
19.9

$$$$
>  <Compound>
O=C(Nc1cccc(Cl)c1)OCC#CCOC(=O)Nc1cccc(Cl)c1

>  <growth inhibition / %>
-4

$$$$
>  <Compound>
CC(C)NC(=O)CC(NCc1ccccc1)C(=O)O (configuration not stated)

>  <growth inhibition / %>
5.85

$$$$
>  <Compound>
CCOC(=O)c1nnc(C)[nH]c1=O

>  <growth inhibition / %>
13.4

$$$$
>  <Compound>
CC1(C)OC2COC3(CO)OC(C)(C)OC3C2O1 (configuration not stated)

>  <growth inhibition / %>
-2.2

$$$$

stdin: What growth inhibition value was documented for this compound, CCOC(=O)/C(C=Nc1c(C)n(C)n(-c2ccccc2)c1=O)=C(/C)O ?
stdout: 19.7

stdin: # query: growth inhibition of entry O=C1N=C2SC(=S)NC(=S)N2NC12c1ccccc1-c1ccccc12
stdout: 30.1

stdin: Request the reported growth inhibition associated with Cc1nc(N)nc(N)c1N1CCN(c2ccc(C(=O)NC(C(=O)O)C(=O)O)cc2)CC1
stdout: -4.8

stdin: What does the data say about its growth inhibition? Entry: COc1cc2ccccc2cc1CO
stdout: -4.15
